EXPERIMENT_SUMMARY: Chemical stability of the compound in phosphate buffer at pH 7.4 assessed as compound degradation at 20 uM up to 25 mins by UV-visible absorption spectrum assay
Assay type: physicochemical
RECORDED_CONDITIONS: read-out: Drug degradation
MEASURED_QUANTITY: degraded at 25 min, 20 µM

Reported degraded at 25 min, 20 µM, molecule COc1cc(/C=C/C(=O)CC(=O)/C=C/c2ccc(O)c(OC)c2)ccc1O : ____ > 45%
